Molecular target: HLA DQ molecule DQB1*0202 (human)
Assay: inhibition of radiolabeled peptide binding to purified HLA class II
Metric Name: IC50 (µM)
Express the result in µM but write the number alone.

Worked examples, 3 binders total:
Binder: AETCPIFYDVFFAVA [Fel d 1 2 (21-35) peptide AETCPIFYDVFFAVA, Peptide ID 3324.1056]
Readout Unit: µM
IC50: 2.1
--
Binder: NGNELLLDLSLTKVN [Fel d 1 2 (36-50) peptide NGNELLLDLSLTKVN, Peptide ID 3324.1055]
Readout Unit: µM
IC50: 8.02
--
Binder: QVAQYKALPVVLENA [Fel d 1 1 (46-60) peptide QVAQYKALPVVLENA, Peptide ID 3324.1051]
Readout Unit: µM
IC50: 21.4

# input Please give measured IC50 of the following entry: AIVYYSMYGHIKKMA [Alt a 7 (6-20) peptide AIVYYSMYGHIKKMA, Peptide ID 3324.0085]
# output 6.24

Value source: patent US20150004189A1
